The measurements presented in this section are drawn from paper PMC5062169.

# EXPERIMENTAL TARGET: PscD (PscD-SD, Cache sensor domain of chemoreceptor PscD) (Pseudomonas syringae)
# Construct: gene CFBP3846_03581; sensor domain, Gln31-Trp188, N-terminal His6 tag
# Sequence (A0ABY1U976 31-188): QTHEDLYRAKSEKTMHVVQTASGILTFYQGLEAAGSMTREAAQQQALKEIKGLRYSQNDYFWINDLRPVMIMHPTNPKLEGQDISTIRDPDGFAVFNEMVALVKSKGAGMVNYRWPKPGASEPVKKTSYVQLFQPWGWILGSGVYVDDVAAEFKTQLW
# CONDITION SET: Biolog plate compound, exact concentration unknown; binder
The following molecules are shown together with reported Δ Tm values.
Don't forget the unit after the number, please.

NCCc1ccc(O)cc1 : 0.12 ± 0.03 °C
NC(=O)[C@H]1O[C@@H](O)[C@H](O)[C@@H](O)[C@@H]1O [Glucuronamide] : 0.17 ± 0.06 °C
C[C@H](O)[C@@H](O)[C@@H](O)[C@H](O)C=O : 0.12 ± 0.05 °C
O=c1ccn([C@@H]2O[C@H](CO)[C@@H](O)[C@H]2O)c(=O)[nH]1 : 0.15 ± 0.05 °C
CO[C@@H]1O[C@H](CO)[C@@H](O)[C@H](O)[C@H]1O [β-Methyl-D-Glucoside] : 0.07 ± 0.04 °C
O=C(O)CCC(=O)C(=O)O : 0.17 ± 0.02 °C
NC(=O)C[C@H](N)C(=O)O : 0.00 ± 0.00 °C
CCC(=O)C(=O)O : 0.17 ± 0.05 °C

Lab note: need Δ Tm for O=P(O)(O)O[C@H]1O[C@H](CO)[C@@H](O)[C@H](O)[C@H]1O [D-Glucose-1-Phosphate] on PscD (PscD-SD, Cache sensor domain of chemoreceptor PscD) (Pseudomonas syringae), anyone have it?
0.10 ± 0.05 °C
